These data points were gathered from ChEMBL document CHEMBL1914456.

IC50 for assorted compounds
measurement target: Type 1 fimbrin D-mannose specific adhesin (Escherichia coli K-12)
Sequence (P08191 whole entry): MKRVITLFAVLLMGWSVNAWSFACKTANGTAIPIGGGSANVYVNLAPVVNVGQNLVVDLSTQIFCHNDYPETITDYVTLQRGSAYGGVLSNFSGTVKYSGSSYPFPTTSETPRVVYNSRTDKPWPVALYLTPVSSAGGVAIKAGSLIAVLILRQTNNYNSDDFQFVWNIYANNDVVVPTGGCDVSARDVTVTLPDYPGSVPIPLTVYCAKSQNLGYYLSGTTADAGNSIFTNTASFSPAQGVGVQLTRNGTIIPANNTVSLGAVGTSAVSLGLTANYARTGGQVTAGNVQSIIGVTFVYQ
measurement description: Antagonist activity at Escherichia coli recombinant C-terminal 6His-tagged FimH-CRD with a C-terminal thrombin cleavage site expressed in Escherichia coli HM125 assessed as inhibition of streptavidin-horseradish peroxidase conjugated TM-PAA polymer binding after 3 hrs by spectrophotometry
Supply the numeric figure in nM, leaving out any unit text.

Answered examples (6):
| structure notation | IC50, nM |
| --- | --- |
| CCCCCCCO[C@H]1O[C@H](CO)[C@@H](O)[C@H](O)[C@@H]1O | 65.6 |
| Nc1ccc(-n2cc(CO[C@H]3O[C@H](CO)[C@@H](O)[C@H](O)[C@@H]3O)nn2)cc1 | 420 |
| OC[C@H]1O[C@H](n2cc(COc3ccccc3)nn2)[C@@H](O)[C@@H](O)[C@@H]1O | 493 |
| OC[C@H]1O[C@H](OCCc2cn(-c3ccncc3)nn2)[C@@H](O)[C@@H](O)[C@@H]1O | 153 |
| OC[C@H]1O[C@H](OCc2cn(Cc3ccccc3)nn2)[C@@H](O)[C@@H](O)[C@@H]1O | 667 |
| COc1ccc(-n2cc(CO[C@H]3O[C@H](CO)[C@@H](O)[C@H](O)[C@@H]3O)nn2)cc1 | 161 |

Exercise: Which measured IC50 value corresponds to O=C([O-])c1cncc(-n2cc(CO[C@H]3O[C@H](CO)[C@@H](O)[C@H](O)[C@@H]3O)nn2)c1.[Na+] ?
Key: 169

Exercise: Give the measured IC50 of Cc1ccc(-c2cn(C[C@H]3O[C@H](CO)[C@@H](O)[C@H](O)[C@@H]3O)nn2)cc1 .
Key: 565
